system: hypothermia induced by apomorphine; experiment: Interaction with apomorphine by gastric administration; format: in vivo; conditions: Mus musculus, male mice, apomorphine 16 mg/kg s.c., read-out: dose as from which the hypothermia induced by apomorphine is opposed
Measurement kind: minimal effective dose

Record excerpt, results attached:
[[record]]
compound = "CC(=O)N1C=NCC(c2ccccc2)C1.Cl (stereo not shown)"
tested_system = "hypothermia induced by apomorphine"
result = "≥ 0.5 mg/kg"

[[record]]
compound = "Cl.Fc1ccccc1C1CN=CNC1 (stereo not shown)"
tested_system = "hypothermia induced by apomorphine"
result = "≥ 0.25 mg/kg"

[[record]]
compound = "CC1=NCC(c2ccccc2)CN1.Cl (stereo not shown)"
tested_system = "hypothermia induced by apomorphine"
result = "≥ 0.5 mg/kg"


Let's switch to this compound now.
Lab note: need minimal effective dose for Cl.OC1(c2ccccc2)CN=CNC1 (stereo not shown) on hypothermia induced by apomorphine, anyone have it?
≥ 2 mg/kg
